biological target: JAK2 (Homo sapiens (Human), UniProt O60674); assay: Enzyme assay (Assay Example^a 1), JAK2; type: biochemical; conditions: ATP 100 μM
Simple rule here: IC50 less than 0.06 µM is T, otherwise F.

Strictly below 0.06 µM in IC50? N#CCNS(=O)(=O)C[C@H]1CC[C@H](c2nnn3cnc4[nH]ccc4c23)CC1 [compound 419]
T

Strictly below 0.06 µM in IC50? CN(C)C[C@H]1CC[C@H](c2nnn3cnc4[nH]ccc4c23)CC1 [compound 296]
F

Strictly below 0.06 µM in IC50? N#CCC(=O)N(CC#N)C[C@H]1CC[C@H](c2nnn3cnc4[nH]ccc4c23)CC1 [compound 408]
T

Strictly below 0.06 µM in IC50? N#Cc1ccc(N2CCC(c3nnn4cnc5[nH]ccc5c34)CC2)cc1 [compound 376]
F

Strictly below 0.06 µM in IC50? N#CCN(C[C@H]1CC[C@H](c2nnn3cnc4[nH]ccc4c23)CC1)C(=O)CC(F)(F)F [compound 412]
T
